Reference source: the RNAGym collection of RNA variant scans (doi:10.7554/elife.80360)

Assignment: determine reported self-cleavage for the given variants.
B1: CPEB3 Ribozyme (parent)
chain: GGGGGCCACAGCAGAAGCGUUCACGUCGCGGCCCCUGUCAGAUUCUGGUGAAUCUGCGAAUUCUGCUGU

- Variants of: B1
- protocolSummary: self-cleavage, relative activity (ratio to wild type); higher = more cleavage; co-transcriptional
One number for each entry.

As a guide, the following entries are already answered.
variantString: G5C U38A
self-cleavage: 0.145
--
variantString: C22G A40C
self-cleavage: 0.23
--
variantString: G11A C63U
self-cleavage: 0.707
--
variantString: A13U C35A
self-cleavage: 0.197
--
variantString: G30C A40U
self-cleavage: 0.296

Parameter requested: self-cleavage. Apply to each item below.
1. G17C G41A
2. U20C G48C
3. G47A U49C
4. U38C C66U
5. U67A
6. C18A C54A
7. C63U U67A
8. U62G C66G

Resp:
0.136
0.229
0.975
0.947
0.989
0.162
0.94
0.442

Look up self-cleavage for the entries below, preserving their order.
1. C54A G65C
2. G25C U69G
3. A13C U55G
4. G14A G19U
5. U38A U46A

Resp:
1: 0.514; 2: 0.309; 3: 0.322; 4: 0.091; 5: 0.941
